assay: Cmax in Lewis rat at 1 mg/kg, po; type: ADME, organism-based; parameters: dose 1 mg/kg, route oral; conditions: in vivo
Experimental Endpoint: Cmax (ng/mL)
// units = ng/mL; emit number, no label

Provide one value: measured Cmax of `CCc1cc(CN2CC(C(=O)O)C2)sc1-c1noc(-c2ccc(Oc3ccccc3)cc2)n1`
186

====

assay: Terminal half life in Lewis rat at 0.1 mg/kg, po; assay type: ADME, organism-based; design: dose 0.1 mg/kg, route oral; conditions: in vivo, read-out: beta t1/2 (converted)
Experimental Endpoint: half-life

Output half-life of `CCc1cc(CN2CC(C(=O)O)C2)sc1-c1noc(-c2ccc(Oc3ccccc3)cc2)n1`
12.4 h

====

assay: AUC (0 to 72 hrs) in C57BL/6J mouse at 1 mg/kg, po; assay type: ADME, organism-based; parameters: time < 72 hr, dose 1 mg/kg, route oral; settings: plasma
Experimental Endpoint: AUC(0-t) at 72 h

Give the measured AUC(0-t) at 72 h for `CCc1cc(CN2CC(C(=O)O)C2)sc1-c1noc(-c2ccc(Oc3ccccc3)cc2)n1`
1540 ng·h/mL

====

biological target: Sphingosine 1-phosphate receptor 5 (Homo sapiens, UniProt Q9H228); test: Agonist activity at human S1P5 receptor
Sequence (Q9H228 whole entry): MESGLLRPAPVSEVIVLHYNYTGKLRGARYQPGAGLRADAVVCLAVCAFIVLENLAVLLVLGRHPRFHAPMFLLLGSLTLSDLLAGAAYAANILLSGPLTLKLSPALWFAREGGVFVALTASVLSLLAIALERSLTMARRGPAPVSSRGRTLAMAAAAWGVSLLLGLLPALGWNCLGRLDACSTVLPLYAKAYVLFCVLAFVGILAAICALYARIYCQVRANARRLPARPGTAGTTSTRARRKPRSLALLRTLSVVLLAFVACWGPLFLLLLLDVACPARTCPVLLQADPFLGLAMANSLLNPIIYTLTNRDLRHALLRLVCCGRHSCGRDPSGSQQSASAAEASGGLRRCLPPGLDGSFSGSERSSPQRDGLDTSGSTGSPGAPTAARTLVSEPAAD
Experimental Endpoint: EC50 (nM)
Reply numerically in nM, unit not repeated.

Please look at this compound and report its EC50: `CCc1cc(CN2CC(C(=O)O)C2)sc1-c1noc(-c2ccc(Oc3ccccc3)cc2)n1`
17

====

test: Cmax in C57BL/6J mouse at 1 mg/kg, po; type: ADME, organism-based; parameters: dose 1 mg/kg, route oral; settings: in vivo
Experimental Endpoint: Cmax
The reply should read as a number followed by its unit.

Tell me its Cmax given `CCc1cc(CN2CC(C(=O)O)C2)sc1-c1noc(-c2ccc(Oc3ccccc3)cc2)n1` as the entry.
135 ng/mL

====

assay: Terminal half life in C57BL/6J mouse at 1 mg/kg, po; format: ADME, organism-based; design: dose 1 mg/kg, route oral; conditions: in vivo, read-out: beta t1/2 (converted)
Experimental Endpoint: half-life (h)
Respond with the bare value in h.

Look up and state reported half-life for `CCc1cc(CN2CC(C(=O)O)C2)sc1-c1noc(-c2ccc(Oc3ccccc3)cc2)n1`
13.9

====

assay: Tmax in C57BL/6J mouse at 1 mg/kg, po; assay type: ADME, organism-based; set-up: dose 1 mg/kg, route oral; conditions: in vivo
Experimental Endpoint: Tmax (h)
# number only, unit h dropped from output

Consider the compound `CCc1cc(CN2CC(C(=O)O)C2)sc1-c1noc(-c2ccc(Oc3ccccc3)cc2)n1` . State its measured Tmax.
2

====

test: Terminal half life in Lewis rat at 1 mg/kg, po; format: ADME, organism-based; design: dose 1 mg/kg, route oral; conditions: in vivo, read-out: beta t1/2 (converted)
Experimental Endpoint: half-life (h)
Write the value in h as a bare number.

Please supply the value of reported half-life for the item `CCc1cc(CN2CC(C(=O)O)C2)sc1-c1noc(-c2ccc(Oc3ccccc3)cc2)n1`
8.73

====

test: Tmax in Lewis rat at 0.1 mg/kg, po; assay type: ADME, organism-based; parameters: dose 0.1 mg/kg, route oral; conditions: in vivo
Experimental Endpoint: Tmax
Note: a bare number is incomplete; add the unit.

Output measured Tmax for this item: `CCc1cc(CN2CC(C(=O)O)C2)sc1-c1noc(-c2ccc(Oc3ccccc3)cc2)n1`
4 h

====

assay: Cmax in Lewis rat at 0.1 mg/kg, po; type: ADME, organism-based; design: dose 0.1 mg/kg, route oral; settings: in vivo
Experimental Endpoint: Cmax (ng/mL)
A number alone suffices; assume ng/mL.

Look up and report measured Cmax for this entry: `CCc1cc(CN2CC(C(=O)O)C2)sc1-c1noc(-c2ccc(Oc3ccccc3)cc2)n1`
17.4

====

test: Tmax in Lewis rat at 1 mg/kg, po; type: ADME, organism-based; design: dose 1 mg/kg, route oral; details: in vivo
Experimental Endpoint: Tmax (h)
Give the quantity in h, number only.

Give recorded Tmax. `CCc1cc(CN2CC(C(=O)O)C2)sc1-c1noc(-c2ccc(Oc3ccccc3)cc2)n1`
4

Hello, the source for this data is ChEMBL document CHEMBL1955716, in case you need it.
